Entries and their MIC
- Tested on: P. aeruginosa CDC-0090
- procedure details: microbe, parasite or virus in culture
- Type: cell-based
- condition summary: Pseudomonas aeruginosa, CDC0090, read-out: Minimum inhibitory concentration, P. aeruginosa CDC-0090

[ask] I have this molecule here, O=C(O)c1c(F)ccc2c1OB(O)[C@@H](NC(=O)[C@H](NC(=O)N1CCN(C3CCN(C(=O)Nc4cccc(O)c4Cl)CC3)C(=O)C1=O)c1cc(F)c(O)c(O)c1Cl)C2 [Example 482] , and I need its recorded MIC.
[reply] 2 to 4 µg/mL

[ask] Please answer likewise for O=C(NCCN1CCN(C(=O)NC(C(=O)N[C@H]2Cc3ccc(F)c(C(=O)O)c3OB2O)c2cc(F)c(O)c(O)c2Cl)C1=O)Nc1cccc(O)c1 (some centres unmarked) [Example 249]
[reply] < 1 µg/mL

[ask] Please answer likewise for O=C(NCCCN1CCN(C(=O)NC(C(=O)N[C@H]2Cc3ccc(F)c(C(=O)O)c3OB2O)c2cc(F)c(O)c(O)c2Cl)C(=O)C1=O)Nc1ccc(O)cc1 (some centres unmarked) [Example 227]
[reply] 2 to 4 µg/mL

# credit: patent US20240270762A1
